meta.source: patent US20240158515A1

Below, each entry is listed alongside its reported pKd.
- testedSystem: T1, cynomolgus FGFR3b expressed with a C-terminal myc-myc-hexahistidine tag (mfFGFR3b.mmH) (cynomolgus)
- T1 construct: also called REGN3521; mf FGFR3b ecto (R357G)(E23-G377;R357G).mmH
- T1 chain: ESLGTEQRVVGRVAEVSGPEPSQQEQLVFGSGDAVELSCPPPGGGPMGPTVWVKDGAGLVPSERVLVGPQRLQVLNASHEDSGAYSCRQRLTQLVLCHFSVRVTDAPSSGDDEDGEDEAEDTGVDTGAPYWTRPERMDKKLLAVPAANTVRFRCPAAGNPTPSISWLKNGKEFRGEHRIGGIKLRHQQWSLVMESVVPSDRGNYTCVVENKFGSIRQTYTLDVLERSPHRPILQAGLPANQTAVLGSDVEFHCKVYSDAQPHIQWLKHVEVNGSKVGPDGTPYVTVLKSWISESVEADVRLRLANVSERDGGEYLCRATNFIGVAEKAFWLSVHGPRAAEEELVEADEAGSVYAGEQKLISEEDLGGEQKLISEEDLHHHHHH
- testSummary: SPR Biacore, mAb captured on anti-hFc, 25C
pKd: −log10 of the molar value.

binder | pKd
H4H30045P (antibody, human IgG4 S228P, kappa, V domains shown, HCVR 179, LCVR 187) VH: QVQLVQSGAEVKKPGASVKVSCKTSGYRFVNYGFSWVRQAPGQGLEWMGWISPYNGNTNYIQNLQDRITMTTDTSTNTAYMELTNLRSDDTAVYYCATLTGVHFDYWGQGTLVTVSS VL: AIQMTQSPSSLSASVGDRVTITCRASQGIRNDLGWYQQKPGKAPNLLIFETSRLQSGVPSRFSGSGSGTDFTLTINSLQPEDFATYYCLQDYNYPWTFGQGTKVEIKR | 7.69
H4H30071P (antibody, human IgG4 S228P, kappa, V domains shown, HCVR 42, LCVR 50) VH: QVQLQQSGPGLVKPSQTLSLTCAISGDSVSRNSAAWNWIRQSPSSGLEWLGRTYYRSKWFYDYAISVKSRITVNPDTSKNQFSLHLNSVTPEDTAVYYCARGYGGYEDYFDYWGQGTLVTVSS VL: DIQMTQSPSSVSASVGDRVTITCRASQGISSWLAWYQQKPGKAPKLLIYGASSLQSGVPSRFSGSGSGTDFTLTISSLQPEDFATYFCQQGSSFPYTFGQGTKLEIKR | 9.91
H4H30061P (antibody, human IgG4 S228P, kappa, V domains shown) VH: EVQLVESGGGLAQPGGSLKLSCEASGFTFSDSAMHWVRQASGKGLEWVGRIRSKANSYATGYAASVKGRFTISRDDSKNMAFLEMNSLKTEDTAVYYCLRQTYGDPWGQGTLVTVSS VL: DVVMTQSPLSLSVTLGQPASISCRSSLSLVYSDGNNYLNWFQQRPGQSPRRLLYKVFNRDSGVPDRFSGSGSGTDFTLKISRVEAEDVGVYYCMQGTHWPWTFGQGTKVEIKR | 9.19
